# Test system: RXF 393 renal
# Assay remarks: NCI tumour cell line growth inhibition, 48 h
Measurement label: GI50

Find the measured GI50: item COc1cccc(-c2ccc3c(c2)C2CCN(Cc4ccccc4)C3C2)c1 (stereo not drawn) , target or system RXF 393 renal.
10.1 µM

Can you handle `O=C(CN1CCN(c2cc3c(cc2F)c(=O)c(C(=O)O)cn3C2CC2)CC1)Nc1nc(-c2ccc(Cl)cc2)cs1` next?
4.72 µM

Can you handle `Oc1ccc(-c2nc3ccc4[nH]ncc4c3c3c2CCCC3)c(F)c1` next?
1.47 µM

###

# Test system: SK-OV-3 ovarian
# Assay remarks: NCI tumour cell line growth inhibition, 48 h
Measurement label: TGI

Would you kindly share the measured TGI for CCN1C(=O)CCCc2c1ccc(Nc1ncc(Cl)c(NC3[C@@H](C(N)=O)[C@@H]4C=C[C@H]3C4)n1)c2OC (stereo not given in full) ?
7.74 µM

Can you handle `CCN(Cc1ccc(F)cc1)c1ccc(CO)c(C)c1` next?
41.5 µM

Can you handle `COc1cc(-c2cc(-c3ccc(Nc4ccnc5cc(Cl)ccc45)cc3)nc(N3CCOCC3)n2)cc(OC)c1OC` next?
31.7 µM

Can you handle `O=c1sc2c(s1)-c1sc(=O)sc1SS2` next?
> 100 µM

Can you handle `Cc1nc2c(o1)C(=Nc1ccccc1)c1ccccc1C2=O` next?
28 µM

Can you handle `Cc1cccc(C(C)C)c1N1C(=O)C(=O)C(c2nc3ccccc3o2)C(=O)C1=O` next?
> 100 µM

Can you handle `COc1ccc2c(C3(c4cn(C)c5cc(OC)ccc45)C(=O)Nc4ccc(Cl)cc43)cn(C)c2c1` next?
> 100 µM

Can you handle `C(=N\Nc1ccc(-c2nc3ccccc3[nH]2)cc1)/c1c(-c2ccc(Cc3ccccc3)cc2)[nH]c2ccccc12` next?
> 100 µM

Can you handle `CN(C)c1ccc(C=C2C(=O)N(c3ccccc3)N(c3ccccc3)C2=O)cc1` next?
> 100 µM

Can you handle `Cc1c(-c2ccccc2)nn2cc(-c3ccccc3)nnc12` next?
> 100 µM

Can you handle `COc1cccc2c1-c1c(c3ccc([N+](=O)[O-])cc3c(=O)n1CCCN)C2=O` next?
29.8 µM

Can you handle Cc1ccc(NC(=O)C(Cc2c[nH]c3ccccc23)NC(=O)Oc2ccccc2)cc1C (stereo not given) next?
> 100 µM

Can you handle `O=C1c2ccccc2C(=O)c2c(O)c(NCCCNCCO)cc(O)c21` next?
26.1 µM

Can you handle N#CC1CCCCOCCOCCOCCOCCOCCCCCC1=O (stereo not given) next?
> 100 µM

Can you handle `O=C1C=CC(=C(c2ccc(O)cc2)c2ccc(O)cc2)C=C1` next?
32.3 µM

Can you handle `Cc1cc(-c2ccccc2)nc(Nc2nc3ccccc3o2)n1` next?
> 100 µM

Can you handle `CCOC(=O)C[n+]1cccc(C2(c3cc4ccccc4[nH]3)OCCO2)c1` next?
> 100 µM

Can you handle COC(=O)C1=C(c2ccc(OC)c(OC)c2)OC(c2cc(OC)c(OC)c(OC)c2)C1 (stereo not given) next?
56.8 µM

Can you handle `CCCCCCNC(=O)Oc1ccc(/C(=C(/C)Cc2ccc(OC)cc2)c2ccc(OCCCN(C)C)cc2)cc1` next?
30.9 µM

Can you handle `Nc1nc(N)c(C=Nc2ccc(Br)cc2)c(Nc2ccc(Br)cc2)n1` next?
28.4 µM

Can you handle CCn1c(SC(C)C(=O)c2c(C)n(C)n(-c3ccccc3)c2=O)nc2ccccc2c1=O (stereo not given) next?
> 100 µM

Can you handle `CN(COC(=O)c1ccccc1)c1nc(N(C)COC(=O)c2ccccc2)nc(N(C)COC(=O)c2ccccc2)n1` next?
> 100 µM

Can you handle `C=C1C(=O)O[C@H]2[C@H]1CC/C(COC(=O)CCSCCC(=O)OC/C1=C/CC[C@@]3(C)O[C@H]3[C@H]3OC(=O)C(=C)[C@@H]3CC1)=C\CC[C@@]1(C)O[C@@H]21` next?
13.8 µM

Can you handle CCCC(C)n1c(C)nc2c1C(=O)c1ccccc1C2=O (stereo not given) next?
> 100 µM

Can you handle `CCOC(=O)c1sc2nc(SC)nc3c2c1NCN3c1ccc(F)c(F)c1` next?
43.5 µM
